Target: T1, 6×His-tagged human LILRB2 ECD recombinant protein (human, UniProt Q8N423 22-458, limits assumed)
T1 construct: Bought protein; not shown: 6×His-tag
T1 sequence (Q8N423 22-458 limits assumed): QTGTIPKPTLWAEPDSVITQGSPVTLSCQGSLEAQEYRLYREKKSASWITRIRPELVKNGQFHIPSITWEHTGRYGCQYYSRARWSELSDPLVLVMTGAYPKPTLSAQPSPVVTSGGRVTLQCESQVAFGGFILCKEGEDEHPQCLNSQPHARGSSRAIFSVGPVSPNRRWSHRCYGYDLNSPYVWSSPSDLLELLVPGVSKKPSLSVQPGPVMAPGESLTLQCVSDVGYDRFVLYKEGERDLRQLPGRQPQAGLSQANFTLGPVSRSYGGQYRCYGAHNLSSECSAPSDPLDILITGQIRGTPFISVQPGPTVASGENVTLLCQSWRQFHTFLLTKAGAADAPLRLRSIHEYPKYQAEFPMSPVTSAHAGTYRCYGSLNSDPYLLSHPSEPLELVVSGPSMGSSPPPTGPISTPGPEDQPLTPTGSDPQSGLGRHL
Assay: Octet, 1:1 model
observation type: pKd
Keep it numeric: pKd is minus log10 of the concentration in mol/L.

See these solved cases before continuing.
043c (antibody, V domains shown, Human IgG4 chimeric antibody with S228P mutation at the Fc region; also called chimeric antibody 043c; parental antibody 043c) VH: QVQLQQSGAELAKPGASVKLSCKASGYTFTSYWMYWVKQRPGQGLEWIGHINPSSGYTKYNQKFKDKATLTADKSSSTAYMQLSSLTYEDSAVYYCARDPNWDNYWGQGTTLTVSS VL: DIVMTQSHKFMSTSVGDRVSITCKASQDVSIAVAWYQQKPGQSPKLLIYSASYRYTGVPDRFTGSGSGTDFTFTISSVQAEDLAVYYCQQHYSTPYTFGGGTKLEIK | 8.62
hu043.03 (antibody, V domains shown, Humanized human IgG4 antibody with S228P in the constant region; also called hu043VH8 / hu043VL4) VH: QVQLQQSGAEVKKPGASVKLSCKASGYTFTSYWMYWVRQRPGQGLEWIGHINPSSGYTKYNQKFKDRATLTADTSTSTAYMELSSLRSEDTAVYYCARDPNWDNYWGQGTTVTVSS VL: DIVMTQSPSSLSASVGDRVSITCKASQDVSIAVAWYQQKPGKAPKLLIYSASYRYTGVPDRFSGSGSGTDFTFTISSLQPEDIATYYCQQHYSTPYTFGGGTKLEIK | 8.28

Problem: Reported pKd, binder hu043.02 (antibody, V domains shown, Humanized human IgG4 antibody with S228P in the constant region; also called hu043VH7 / hu043VL4) VH: QVQLVQSGAEVKKPGASVKVSCKASGYTFTSYWMYWVRQAPGQGLEWIGHINPSSGYTKYNQKFKDRVTMTADTSTSTVYMELSSLRSEDTAVYYCARDPNWDNYWGQGTTVTVSS VL: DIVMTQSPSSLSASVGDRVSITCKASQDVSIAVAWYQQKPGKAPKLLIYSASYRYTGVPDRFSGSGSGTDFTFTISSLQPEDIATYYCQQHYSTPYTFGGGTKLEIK : ____
Result: 8.45
